For each record, write down the corresponding GI50.
System: NCI-H23 lung
experimentNotes: NCI tumour cell line growth inhibition, 48 h

response.value for `Cc1nc2sc(C(=O)Nc3ccccc3)c(N)c2cc1C(=O)/C=C/c1ccccc1` (field: GI50) = 2.2 µM

response.value for `CCN(Cc1ccccc1OC)c1ccc(CO)c(Cl)c1` (field: GI50) = 8.96 µM

response.value for COc1c(N2CCN(CN3C(=O)C(=Nc4ccc(S(=O)(=O)Nc5ncccn5)cc4)c4ccccc43)C(C)C2)c(F)cc2c(=O)c(C(=O)O)cn(C3CC3)c12 (centres undefined) (field: GI50) = 19.8 µM

response.value for CC1OC2CC(=O)OC2C2=C1C(=O)c1c(O)c3c(c(O)c1C2=O)C1CC(O)C3(O)C(C)O1 (centres undefined) (field: GI50) = 0.414 µM

###

Tested on: IGROV1 ovarian
experimentNotes: NCI tumour cell line growth inhibition, 48 h
Parameter threshold = 20 µM. Response is Satisfied when TGI meets or exceeds it, else Not satisfied.

Evaluate `CCOC(=O)C(=O)Nc1c(C)cccc1C` : TGI at minimum 20 µM?
Satisfied

Evaluate CN(C)CCCN1CCc2c([nH]c3ccccc23)C1c1cccnc1 (stereo unspecified) : TGI at minimum 20 µM?
Satisfied

Evaluate `CCC(=O)O[C@H]1CC[C@H]2[C@@H]3CCC4=C/C(=N/NC(=O)c5cccc6c(=O)c7ccccc7[nH]c56)CC[C@]4(C)[C@H]3CC[C@]12C` : TGI at minimum 20 µM?
Satisfied

Evaluate Clc1ccc(C2NN=C3c4ccccc4OCC32)cc1 (stereo unspecified) : TGI at minimum 20 µM?
Satisfied

Evaluate `C=C(C)C(=O)O[C@H]1[C@H]2[C@H](OC(=O)[C@H]2C)[C@H](O)[C@@H](C)[C@@H]2C=CC(=O)[C@]21C` : TGI at minimum 20 µM?
Not satisfied

Evaluate `CC(C)=CCC/C(C)=C/CC/C(C)=C/CC/C(C)=C/CC/C(C)=C\CC/C(C)=C/CC/C(C)=C/CC/C(C)=C/Cc1cc(O)ccc1O` : TGI at minimum 20 µM?
Not satisfied

Evaluate `Oc1ccc(CCCCCCc2ccc(O)cc2)cc1` : TGI at minimum 20 µM?
Satisfied

Evaluate `Cn1c2ccccc2c(=NNc2ccc(C(=O)O)cc2)c2ccccc21` : TGI at minimum 20 µM?
Satisfied

Evaluate `COC(=O)c1cc(C#Cc2cc(OC)ccc2OC)ccc1OC` : TGI at minimum 20 µM?
Satisfied

Evaluate `CN1CN(c2ccccc2)C2(CCN(CCc3csc4ccccc34)CC2)C1=O` : TGI at minimum 20 µM?
Satisfied

Evaluate `CSc1ccc(/C=C2\N=C(c3ccccc3)N(c3nc4ccc(Sc5ccccc5)cc4[nH]3)C2=O)cc1` : TGI at minimum 20 µM?
Satisfied

Evaluate `COc1ccc(-c2cc(N3CCN(c4ccccc4)CC3)c(C#N)c(=O)o2)cc1` : TGI at minimum 20 µM?
Satisfied

Evaluate `COc1cc2c(c(OC)c1OC)-c1ccc(SC)cc1[C@H](OC(=O)c1ccccc1)CC2` : TGI at minimum 20 µM?
Satisfied

Evaluate `COc1ccc2c3c(c(=O)n(C)c2c1OC)C=CC(C)(C)O3` : TGI at minimum 20 µM?
Satisfied

Evaluate CC1C(=O)C(C)C(c2ccccc2)N(N=O)C1c1ccccc1 (stereo unspecified) : TGI at minimum 20 µM?
Satisfied

Evaluate `CC[C@H](CC#N)OC(=O)N[C@@H](C)c1cccc(NC(=O)Nc2ccc(-c3cnco3)c(OC)c2)c1` : TGI at minimum 20 µM?
Satisfied

Evaluate `CCCCCCCCCc1cc(=O)c2ccc(O)cc2o1` : TGI at minimum 20 µM?
Satisfied

Evaluate `O=C1C(Cl)=C(Nc2cccc(O)c2)C(=O)N1c1cc(Cl)c(Cl)cc1Cl` : TGI at minimum 20 µM?
Satisfied

Evaluate `Cc1cn(Cc2ccccc2CCl)c(=O)[nH]c1=O` : TGI at minimum 20 µM?
Not satisfied

Evaluate `S=c1[nH]c2ccc(Br)cc2c(=S)n1-c1ccccc1` : TGI at minimum 20 µM?
Satisfied

Evaluate `CC(C)(C)c1ccc(S(=O)(=O)N[C@H]2CC[C@H]3[C@@H]4CCc5cc(OS(=O)(=O)O)ccc5[C@H]4CC[C@]23C)cc1` : TGI at minimum 20 µM?
Not satisfied

Evaluate `C[Si](C)(OCCS(=O)(=O)O)C1S(=O)(=O)OCCOS1(=O)=O` : TGI at minimum 20 µM?
Satisfied

Evaluate CC(C)(Br)C1(O)CCCN1C(=O)c1ccccc1 (stereo unspecified) : TGI at minimum 20 µM?
Satisfied

Evaluate `Cc1cc2c3ccccc3n(C)c2c2c1C(=O)C=CC2=O` : TGI at minimum 20 µM?
Satisfied

Evaluate COc1cccc(C2c3cc4c(cc3OC(O)(CO)C2C(=O)O)OCO4)c1 (stereo unspecified) (tested in a mixture with another compound) : TGI at minimum 20 µM?
Satisfied

Evaluate NNC(=O)CCC(=O)NC1C2CC3CC(C2)CC1C3 (stereo unspecified) : TGI at minimum 20 µM?
Satisfied

Evaluate `Cc1nc2sc(C(=O)Nc3ccccc3)c(N)c2cc1C(=O)/C=C/c1ccccc1` : TGI at minimum 20 µM?
Not satisfied

Evaluate `CCc1cc(O)c(Cl)c(C)c1Cl` : TGI at minimum 20 µM?
Satisfied

Evaluate COc1cc(COC(=O)N2CCC2C(=O)O)c([N+](=O)[O-])cc1OC (stereo unspecified) : TGI at minimum 20 µM?
Satisfied

Evaluate `COCc1cc2c(cc1/C=C/[N+](=O)[O-])OCO2` : TGI at minimum 20 µM?
Satisfied

Evaluate `Clc1nc(Cl)c2ncn(Cc3ccc(COc4cccc(OCc5ccc(Cn6cnc7c(Cl)nc(Cl)nc76)cc5)c4)cc3)c2n1` : TGI at minimum 20 µM?
Satisfied

Evaluate `CCCCN(Cc1ccc(F)cc1)c1ccc(CO)c(Cl)c1` : TGI at minimum 20 µM?
Not satisfied

Evaluate CSc1nc2c(nc(N)n2C2OCC(O)C(O)C2O)c(=O)n1C (stereo unspecified) : TGI at minimum 20 µM?
Satisfied

Evaluate CCCCOC(=O)C(O)Cc1ccoc1 (stereo unspecified) : TGI at minimum 20 µM?
Satisfied

Evaluate `Clc1nc(Cl)c2c(ncn2C/C=C\Cn2cnc3c(Cl)nc(Cl)nc32)n1` : TGI at minimum 20 µM?
Not satisfied

Evaluate COc1ccc2c(c1)OC(N(C(C)=O)C(C)=O)=C(C#N)C2c1ccc(F)cc1 (stereo unspecified) : TGI at minimum 20 µM?
Satisfied

Evaluate `COC(=O)c1csc(-c2nc(CCNC(=O)OC(C)(C)C)sc2Br)n1` : TGI at minimum 20 µM?
Satisfied

Evaluate COC(=O)/N=[N+](\[O-])C(c1ccc(OC)cc1)C1CCCCC1 (stereo unspecified) : TGI at minimum 20 µM?
Satisfied

Evaluate `C[C@H]1[C@H](C)CC[C@]2(C(=O)O)CC[C@]3(C)C(=CC[C@@H]4[C@@]5(C)C/C(=C/c6cccnc6)[C@H](O)C(C)(C)[C@@H]5CC[C@]43C)[C@H]12` : TGI at minimum 20 µM?
Satisfied

Evaluate `COc1ccc(NC(=O)c2cc(OC)c(OC)c(OC)c2)cc1` : TGI at minimum 20 µM?
Satisfied

Sourced from PubChem BioAssay (NCI)
